Reference source for all entries: paper PMC8151276

study_target: CNR1 (Homo sapiens, UniProt P21554)
Construct: purchased Promega (in-house HiBiT-GPCR construct library, NanoBRET)
Sequence (P21554 whole entry): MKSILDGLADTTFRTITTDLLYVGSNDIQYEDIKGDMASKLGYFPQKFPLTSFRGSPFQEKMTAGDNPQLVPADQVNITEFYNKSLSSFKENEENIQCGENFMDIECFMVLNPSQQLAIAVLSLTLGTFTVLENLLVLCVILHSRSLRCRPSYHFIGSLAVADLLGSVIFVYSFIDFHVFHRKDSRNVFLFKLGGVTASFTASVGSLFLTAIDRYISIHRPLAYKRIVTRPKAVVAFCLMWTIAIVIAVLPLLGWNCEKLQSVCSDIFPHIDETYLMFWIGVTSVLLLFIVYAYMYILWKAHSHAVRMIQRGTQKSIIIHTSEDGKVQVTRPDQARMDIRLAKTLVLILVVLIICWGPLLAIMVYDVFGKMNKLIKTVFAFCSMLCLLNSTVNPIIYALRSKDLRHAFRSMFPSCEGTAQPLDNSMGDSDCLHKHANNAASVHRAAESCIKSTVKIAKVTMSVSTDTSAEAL
method_summary: NanoBRET screen HiBiT-CNR1 in HEK293
Type: binding
condition_description: CNR1; tracer 0.1μM
Outcome: 1 for NanoBRET Fold Response of at least 1; 0 for anything lower.

For orientation, consider the following solved cases.
compound	assigned_label
CC(C)N(CC[C@H](c1ccccc1)c1cc(CCNC(=O)CCOCCOCCOCCOCCNC(=O)CCc2ccc3n2[B-](F)(F)[N+]2=C(c4ccc[nH]4)C=CC2=C3)ccc1O)C(C)C	1
CN(C)CCC=C1c2ccccc2CCc2ccc(C(=O)NCCNC(=O)CCOCCOCCOCCOCCNC(=O)CCc3ccc4n3[B-](F)(F)[N+]3=C(c5ccc[nH]5)C=CC3=C4)cc21	1
O=C(CCc1ccc2n1[B-](F)(F)[N+]1=C(c3ccc[nH]3)C=CC1=C2)NCc1ccc(C(=O)NCCOCCC(=O)N[C@@H]2CC[C@@]3(O)[C@H]4Cc5ccc(O)c6c5[C@@]3(CCN4CC3CC3)[C@H]2O6)cc1 [Naltrexone-3-NB590]	0

Request: Check this compound for NanoBRET Fold Response at or above 1: COc1ccccc1N1CCN(CCCCN2C(=O)c3ccc(CNC(=O)CCOCCNC(=O)c4ccc(CNC(=O)CCc5ccc6n5[B-](F)(F)[N+]5=C(c7ccc[nH]7)C=CC5=C6)cc4)cc3C2=O)CC1
Result: 1

Request: hey, is NanoBRET Fold Response for this one >= 1? O=C(CCOCCOCCOCCOCCNC(=O)CCc1ccc2n1[B-](F)(F)[N+]1=C(c3ccc[nH]3)C=CC1=C2)NCCCN1CCN(C2=Nc3ccccc3Oc3ccc(Cl)cc32)CC1
Result: 0

----------
study_target: FZD7 (Homo sapiens, UniProt O75084)
Construct: purchased Promega (in-house HiBiT-GPCR construct library, NanoBRET)
method_summary: NanoBRET screen HiBiT-FZD7 in HEK293
Assay type: binding
condition_description: FZD7; tracer 1μM
readout_type: NanoBRET Fold Response

# example entries with known answers
compound	NanoBRET Fold Response
COc1ccccc1N1CCN(CCCCN2C(=O)c3ccc(CNC(=O)CCOCCOCCOCCOCCNC(=O)CCc4ccc5n4[B-](F)(F)[N+]4=C(c6ccc[nH]6)C=CC4=C5)cc3C2=O)CC1	1.03
O=C(CCOCCOCCOCCOCCNC(=O)CCc1ccc2n1[B-](F)(F)[N+]1=C(c3ccc[nH]3)C=CC1=C2)NCCCN1CCN(C2=Nc3ccccc3Oc3ccc(Cl)cc32)CC1	1.05
COc1ccccc1N1CCN(CCCCN2C(=O)c3ccc(CNC(=O)CCOCCNC(=O)c4ccc(CNC(=O)CCc5ccc6n5[B-](F)(F)[N+]5=C(c7ccc[nH]7)C=CC5=C6)cc4)cc3C2=O)CC1	1.27

Request: GET /values?readout=NanoBRET Fold Response&system=FZD7 (Homo sapiens, UniProt O75084)&item= CC(C)N(CC[C@H](c1ccccc1)c1cc(CCNC(=O)c2ccc(CNC(=O)CCc3ccc4n3[B-](F)(F)[N+]3=C(c5ccc[nH]5)C=CC3=C4)cc2)ccc1O)C(C)C
Result: 1.06

Request: Recall the recorded NanoBRET Fold Response for Cc1cc2c(s1)Nc1ccccc1N=C2N1CCN(CCCNC(=O)CCOCCOCCOCCOCCNC(=O)CCc2ccc3n2[B-](F)(F)[N+]2=C(c4ccc[nH]4)C=CC2=C3)CC1 with FZD7 (Homo sapiens, UniProt O75084) and state it.
Result: 0.95

Request: Request - read-out NanoBRET Fold Response | tested on FZD7 (Homo sapiens, UniProt O75084) | compound O=C(CCc1ccc2n1[B-](F)(F)[N+]1=C(c3ccc[nH]3)C=CC1=C2)NCCOCCOCCNC(=O)OCCOCCN1CCN(C2=Nc3ccccc3Sc3ccccc32)CC1
Result: 0.91

Request: Please state recorded NanoBRET Fold Response (tested on FZD7 (Homo sapiens, UniProt O75084)) of CCCn1c(=O)c2[nH]c(-c3ccc(OCC(=O)NCCNC(=O)CCOCCNC(=O)c4ccc(CNC(=O)CCc5ccc6n5[B-](F)(F)[N+]5=C(c7ccc[nH]7)C=CC5=C6)cc4)cc3)nc2n(CCC)c1=O
Result: 1.01

Request: Requested read-out NanoBRET Fold Response, target or system FZD7 (Homo sapiens, UniProt O75084), entry O=C(CCc1ccc2n1[B-](F)(F)[N+]1=C(c3ccc[nH]3)C=CC1=C2)NCc1ccc(C(=O)NCCOCCC(=O)N[C@@H]2CC[C@@]3(O)[C@H]4Cc5ccc(O)c6c5[C@@]3(CCN4CC3CC3)[C@H]2O6)cc1 [Naltrexone-3-NB590]
Result: 1.27

Request: Item: CC(C)N(CC[C@H](c1ccccc1)c1cc(CCNC(=O)CCOCCOCCOCCOCCNC(=O)CCc2ccc3n2[B-](F)(F)[N+]2=C(c4ccc[nH]4)C=CC2=C3)ccc1O)C(C)C Test system: FZD7 (Homo sapiens, UniProt O75084) Read-out: NanoBRET Fold Response Value: ?
Result: 1.12

Request: Fill in the recorded NanoBRET Fold Response for this compound, with FZD7 (Homo sapiens, UniProt O75084) as test system: Cc1nc2n(c(=O)c1CCN1CCC(c3noc4cc(F)ccc34)CC1)CCCC2OC(=O)NCCOCCOCCOCCOCCNC(=O)CCc1ccc2n1[B-](F)(F)[N+]1=C(c3ccc[nH]3)C=CC1=C2 (centres unmarked)
Result: 1.04

Request: Record N#CN=C(NCCCOc1cccc(CN2CCCCC2)c1)NCCNC(=O)CCOCCOCCOCCOCCNC(=O)CCc1ccc2n1[B-](F)(F)[N+]1=C(c3ccc[nH]3)C=CC1=C2 : what is its NanoBRET Fold Response with FZD7 (Homo sapiens, UniProt O75084)?
Result: 0.99
